Data provenance is patent US4810709A.

test: in vivo; design: species or system mice; settings: mouse, po
Counter-ions that a name gives are not always drawn.
Reported property: TD50

I would be grateful if you could share the reported TD50 for CCOC(=O)C1=CC2(CC)CCCN3CCc4c(n1c1cccc([N+](=O)[O-])c41)C32 (single isomer, unassigned) [monohydrochloride] .
> 180 mg/kg

###

test: in vivo; conditions: po
Reported property: TD50 (mg/kg)
Answer in mg/kg, number only, no unit symbol.

I would be grateful if you could share the reported TD50 for CCC1(c2ccccc2)NC(=O)N(C)C1=O (centres unmarked) .
78.6

###

system: conscious mice under normobaric hypoxia; assay: antihypoxic activity on conscious mice under normobaric hypoxia; assay type: in vivo; settings: 50 mg/kg i.p., 30 minutes before, 96% nitrogen and 4% oxygen; control 6.0 ± 1.04 min
Reported Time of survival, Mean ± deviation values follow for various compounds
Answer in min, number only, no unit symbol.

Here is how some compounds turned out for Time of survival, Mean ± deviation.
Compound	Reported property	Output unit	Numeric readout
CC[C@]12CCCN3CCc4c(n(c5ccccc45)[C@@](O)(C(=O)OC)C1)[C@@H]32 [Vincamine, reference compound]	Time of survival, Mean ± deviation	min	6.1
CCOC(=O)C1=CC2(CC)CCCN3CCc4c(n1c1cccc([N+](=O)[O-])c41)C32 (single isomer, unassigned) [Ethyl 9-nitroapovincamate, ethyl 9-nitroapovincamate]	Time of survival, Mean ± deviation	min	13.4
CCOC(=O)C1=CC2(CC)CCCN3CCc4c(n1c1cc([N+](=O)[O-])ccc41)C32 (single isomer, unassigned) [Ethyl 11-nitroapovincamate, ethyl 11-nitroapovincamate]	Time of survival, Mean ± deviation	min	11.0

I would be grateful if you could share the reported Time of survival, Mean ± deviation for CCOC(=O)C1=C[C@]2(CC)CCCN3CCc4c(n1c1ccccc41)[C@@H]32 [Ethyl (+)-apovincamate, reference compound] .
6.4
